Below: a set of entries, each annotated with reported normalized growth.
testMethodNotes: chemical genetic growth profiling, strain panel (AID 1159580);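 further: tested at 20 µM; growth read once vehicle control cultures reached saturation at 30 °C; 1 = growth at the plate median or of vehicle wells; lower values mean less growth of the strain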
protocolConditions: S. cerevisiae deletion strains, growth OD, locus YDR392W, strain spt3, stronger effect = lower value
In all, about 5,500 compounds went through this assay and about 2,000 (36%) were called active. Inconclusive results (about 18%) are left out. Some of the results follow.
I'd appreciate a reply containing only the number, no unit.

# annotated cases, reported normalized growth shown
C=C1C(=O)O[C@@H]2C3O[C@]3(C)CC/C=C(\C)CC[C@@H]12 (some centres not stated)	0.532
COc1ccc([C@H]2Oc3cc(OC)cc(OC)c3C[C@H]2O)cc1	0.948
CC(C)(C)CC(C)(C)c1ccc(O)c(Cc2ccc(Cl)cc2Cl)c1	0.894

Noted for COc1ccc(-c2coc3cc(OC)cc(OC)c3c2=O)cc1 : its normalized growth reads 0.843

// normalized growth value for Nc1ccn(C2O[C@H](CO)[C@@H](O)[C@@H]2O)c(=O)n1 (some centres not stated) : 0.943

Item: CC1(C)O[C@H]2[C@H](O)C[C@](O)(C(N)=O)C[C@H]2O1 | normalized growth: 0.959

Noted for CCNC(=O)CC[C@H](N)C(=O)O : its normalized growth reads 0.991

Lookup result for O=C(O)CN(CC(=O)O)Cc1cc2c(-c3ccccc3C(=O)O)c3cc(CN(CC(=O)O)CC(=O)O)c(=O)cc-3oc2cc1O ; measured normalized growth: 0.914

Just so you know, measured normalized growth for O=C(C1CCCCC1)N1CC(=O)N2CCc3ccccc3C2C1 (configuration not stated) came out at 0.862

normalized growth reading for Oc1ccc(Cl)cc1Cc1cc(Cl)ccc1O : 0.0992

Per the record, NC(N)=NS(=O)(=O)c1ccc(N)cc1 has normalized growth of 0.99

The reported value for OC(Cn1cncn1)(Cn1cncn1)c1ccc(F)cc1F in terms of normalized growth is 0.853

Entry under test: COc1cc2occ(-c3ccccc3)c(=O)c2c(OC)c1C . Its normalized growth was 0.707

Looking up CC(=O)N[C@@H](CS)C(=O)O , I found its normalized growth recorded as 1.02
